# key: entry, value: MFI at 33.3 nM
biological target: T1, human PD-L1 (human, UniProt Q9NZQ7 19-290); experiment: flow cytometry, CHO cells stably expressing huPD-L1, 33.3 nM Fc fusion, PE anti-human Fc
T1 construct: whole, on cells; CHO cells stably expressing huPD-L1; also called huPD-L1
T1 sequence (Q9NZQ7 19-290): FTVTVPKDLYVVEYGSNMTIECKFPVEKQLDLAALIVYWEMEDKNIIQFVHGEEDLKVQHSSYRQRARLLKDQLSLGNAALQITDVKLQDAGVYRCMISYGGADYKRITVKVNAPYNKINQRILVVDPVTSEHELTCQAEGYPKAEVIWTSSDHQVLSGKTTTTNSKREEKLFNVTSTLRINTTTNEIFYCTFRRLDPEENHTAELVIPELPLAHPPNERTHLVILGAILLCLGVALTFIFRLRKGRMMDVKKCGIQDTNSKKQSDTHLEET
Reply numerically in MFI, unit not repeated.

// below: answered binders
variant CD80 IgV-Fc (inert) H18V/A26K/E35D/M47L/V68M/A71G (Fc fusion, not shown: inert human IgG1 Fc) VIHVTKEVKEVATLSCGVNVSVEELKQTRIYWQKDKKMVLTMMSGDLNIWPEYKNRTIFDITNNLSIMILGLRPSDEGTYECVVLKYEKDAFKREHLAEVTLSVKAD | 67300
variant CD80 IgV-Fc (inert) H18R/A26P/E35D/D46N/M47V/V68M/A71G/D90P (Fc fusion, not shown: inert human IgG1 Fc) VIHVTKEVKEVATLSCGRNVSVEELPQTRIYWQKDKKMVLTMMSGNVNIWPEYKNRTIFDITNNLSIMILGLRPSDEGTYECVVLKYEKPAFKREHLAEVTLSVKAD | 29300
variant CD80 IgV-Fc (inert) H18V/A26D/E35D/M47V/V68M/A71G/D90G (Fc fusion, not shown: inert human IgG1 Fc) VIHVTKEVKEVATLSCGVNVSVEELDQTRIYWQKDKKMVLTMMSGDVNIWPEYKNRTIFDITNNLSIMILGLRPSDEGTYECVVLKYEKGAFKREHLAEVTLSVKAD | 67500
variant CD80 IgV-Fc (inert) H18F/A26P/E35D/M47I/V68M/A71G/D90G (Fc fusion, not shown: inert human IgG1 Fc) VIHVTKEVKEVATLSCGFNVSVEELPQTRIYWQKDKKMVLTMMSGDINIWPEYKNRTIFDITNNLSIMILGLRPSDEGTYECVVLKYEKGAFKREHLAEVTLSVKAD | 32300
variant CD80 IgV-Fc (inert) H18L/E35D/M47V/V68M/A71G/D90G (Fc fusion, not shown: inert human IgG1 Fc) VIHVTKEVKEVATLSCGLNVSVEELAQTRIYWQKDKKMVLTMMSGDVNIWPEYKNRTIFDITNNLSIMILGLRPSDEGTYECVVLKYEKGAFKREHLAEVTLSVKAD | 64800
variant CD80 IgV-Fc (inert) H18Y/A26P/E35D/M47Y/V68I/A71G/D90G (Fc fusion, not shown: inert human IgG1 Fc) VIHVTKEVKEVATLSCGYNVSVEELPQTRIYWQKDKKMVLTMMSGDYNIWPEYKNRTIFDITNNLSIIILGLRPSDEGTYECVVLKYEKGAFKREHLAEVTLSVKAD | 27300
variant CD80 IgV-Fc (inert) H18V/A26P/E35D/M47L/V68M/A71G (Fc fusion, not shown: inert human IgG1 Fc) VIHVTKEVKEVATLSCGVNVSVEELPQTRIYWQKDKKMVLTMMSGDLNIWPEYKNRTIFDITNNLSIMILGLRPSDEGTYECVVLKYEKDAFKREHLAEVTLSVKAD | 52400
variant CD80 IgV-Fc (inert) H18V/A26P/E35D/M47V/V68L/A71G (Fc fusion, not shown: inert human IgG1 Fc) VIHVTKEVKEVATLSCGVNVSVEELPQTRIYWQKDKKMVLTMMSGDVNIWPEYKNRTIFDITNNLSILILGLRPSDEGTYECVVLKYEKDAFKREHLAEVTLSVKAD | 55400
variant CD80 IgV-Fc (inert) H18V/A26Q/E35D/M47V/V68L/A71G/D90G (Fc fusion, not shown: inert human IgG1 Fc) VIHVTKEVKEVATLSCGVNVSVEELQQTRIYWQKDKKMVLTMMSGDVNIWPEYKNRTIFDITNNLSILILGLRPSDEGTYECVVLKYEKGAFKREHLAEVTLSVKAD | 33600
variant CD80 IgV-Fc (inert) H18F/A26D/E35D/D46E/M47T/V68M/A71G/D90G (Fc fusion, not shown: inert human IgG1 Fc) VIHVTKEVKEVATLSCGFNVSVEELDQTRIYWQKDKKMVLTMMSGETNIWPEYKNRTIFDITNNLSIMILGLRPSDEGTYECVVLKYEKGAFKREHLAEVTLSVKAD | 27500

[Q] Which measured MFI at 33.3 nM value corresponds to variant CD80 IgV-Fc (inert) H18Y/E35D/M47V/V68L/A71G/D90G (Fc fusion, not shown: inert human IgG1 Fc) VIHVTKEVKEVATLSCGYNVSVEELAQTRIYWQKDKKMVLTMMSGDVNIWPEYKNRTIFDITNNLSILILGLRPSDEGTYECVVLKYEKGAFKREHLAEVTLSVKAD ?
[A] 47900

[Q] Repeat for the following binder: variant CD80 IgV-Fc (inert) H18F/A26N/E35D/M47V/V68M/A71G/D90K (Fc fusion, not shown: inert human IgG1 Fc) VIHVTKEVKEVATLSCGFNVSVEELNQTRIYWQKDKKMVLTMMSGDVNIWPEYKNRTIFDITNNLSIMILGLRPSDEGTYECVVLKYEKKAFKREHLAEVTLSVKAD
[A] 22400

[Q] Repeat for the following binder: variant CD80 IgV-Fc (inert) H18Y/A26P/E35D/M47V/V68M/A71G (Fc fusion, not shown: inert human IgG1 Fc) VIHVTKEVKEVATLSCGYNVSVEELPQTRIYWQKDKKMVLTMMSGDVNIWPEYKNRTIFDITNNLSIMILGLRPSDEGTYECVVLKYEKDAFKREHLAEVTLSVKAD
[A] 51500

[Q] Repeat for the following binder: variant CD80 IgV-Fc (inert) H18Y/A26P/E35D/M47I/V68M/A71G (Fc fusion, not shown: inert human IgG1 Fc) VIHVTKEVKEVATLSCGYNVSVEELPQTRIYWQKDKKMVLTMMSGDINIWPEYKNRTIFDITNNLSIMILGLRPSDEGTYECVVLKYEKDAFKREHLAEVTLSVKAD
[A] 54500

[Q] Repeat for the following binder: variant CD80 IgV-Fc (inert) H18V/E35D/M47V/V68M/A71G/D90G (Fc fusion, not shown: inert human IgG1 Fc) VIHVTKEVKEVATLSCGVNVSVEELAQTRIYWQKDKKMVLTMMSGDVNIWPEYKNRTIFDITNNLSIMILGLRPSDEGTYECVVLKYEKGAFKREHLAEVTLSVKAD
[A] 43600

[Q] Repeat for the following binder: variant CD80 IgV-Fc (inert) H18Y/E35D/M47V/V68M/A71G (Fc fusion, Fc fusions are dimeric by the general description; not shown: inert human IgG1 Fc) VIHVTKEVKEVATLSCGYNVSVEELAQTRIYWQKDKKMVLTMMSGDVNIWPEYKNRTIFDITNNLSIMILGLRPSDEGTYECVVLKYEKDAFKREHLAEVTLSVKAD
[A] 64900
